# Test system: MOLM14
# test_summary: cell viability relative to vehicle control; higher = less cytotoxic;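 also: after 48 h exposure read by CellTiter-Glo luminescence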
# condition_description: 10 µM; SRSF2 genotype: SRSF2 P95H/wt
Listing of recorded cell viability by entry.
property_label: cell viability (%)

1) O=C(/C=C/c1ccc(O)c2c1[C@H](C(=O)O[C@H](Cc1ccc(O)c(O)c1)C(=O)O)[C@@H](c1ccc(O)c(O)c1)O2)O[C@H](Cc1ccc(O)c(O)c1)C(=O)O: 96.7
2) COc1cc2c(cc1O)CC[C@@H]1[C@@H]2CC[C@]2(C)[C@@H](O)CC[C@@H]12: 7.93
3) CCOC(=O)C1=C(N)Oc2ccc(Cl)cc2C1C(C#N)C(=O)OCC (centres undefined): 64.2
4) Cc1ccc2c(c1)c1c(n2CCc2ccc(C)nc2)CCN(C)C1 [Latrepirdine 2HCl]: 74.4

----------
# Test system: MARIMO
# test_summary: cell viability relative to vehicle control; higher = less cytotoxic
# condition_description: 10 µM; SRSF2 genotype: SRSF2 P95H/wt
Where a name gives a salt, the structure may show the parent alone.
property_label: cell viability (%)

1) COc1cc(O)c2c(=O)c(O[C@@H]3O[C@H](CO)[C@@H](O)[C@H](O)[C@H]3O)c(-c3ccc(O[C@@H]4O[C@H](CO)[C@@H](O)[C@H](O)[C@H]4O)cc3)oc2c1 [Complanatuside]: 108
2) NNc1nncc2ccccc12 [Hydralazine hydrochloride]: 97.6
3) N#Cc1ccc(-c2csc(NN=C3CCCC3)n2)cc1: 66.9
4) O=C(Nc1c[nH]nc1-c1nc2ccc(CN3CCOCC3)cc2[nH]1)NC1CC1: 6.33
5) CCC(C)(C)c1ccc(CC(C)CN2C[C@@H](C)O[C@@H](C)C2)cc1 (some centres not stated) [Amorolfine Hydrochloride]: 66.2
6) COCC1=C(C(=O)OC(C)OC(=O)OC(C)C)N2C(=O)[C@@H](NC(=O)/C(=N\OC)c3csc(N)n3)[C@H]2SC1 (some centres not stated): 91.9
7) C[C@H]1[C@H](C)CC[C@]2(C(=O)O)CC[C@]3(C)C(=CC[C@@H]4[C@@]5(C)C[C@@H](O)[C@H](O)C(C)(C)[C@@H]5CC[C@]43C)[C@H]12: 94.7

----------
# System: MOLM14
# test_summary: cell viability relative to vehicle control; higher = less cytotoxic
# condition_description: 10 µM; SRSF2 genotype: SRSF2 wt/wt
Counter-ions that a name gives are not always drawn.
Listing of recorded cell viability by entry.
property_label: cell viability (%)

1. O=C(O)CCc1ccc(O)cc1O [Hydroumbellic acid]: 100
2. O=C1CC(c2ccc(O)cc2)Oc2cc(O)ccc21 (stereo not given): 104
3. CCOC(=O)[C@H](CCc1ccccc1)N[C@@H](C)C(=O)N1C(=O)N(C)C[C@H]1C(=O)O [Imidapril HCl]: 95.2
4. CC(C)NCC(O)COc1ccc(COCCOC(C)C)cc1 (stereo not given) [Bisoprolol fumarate]: 91.5
5. CN1CCC(=C2c3ccccc3CCc3cccnc32)CC1 [Azatadine dimaleate]: 100

----------
# Test system: MARIMO
# test_summary: cell viability relative to vehicle control; higher = less cytotoxic
# condition_description: 10 µM; SRSF2 genotype: SRSF2 wt/wt
Structures can show the parent of a compound that is named as a salt.
property_label: cell viability (%)

1) O=C(/C=C/c1ccc(O)cc1)OC[C@H]1O[C@@H](Oc2c(-c3ccc(O)cc3)oc3cc(O)cc(O)c3c2=O)[C@H](O)[C@@H](O)[C@@H]1O [Tiliroside]: 109
2) Cc1cc(-c2ccc(CC(=O)Nc3ccc(-c4cccnc4)cc3)cc2)ccn1: 86.3
3) Nc1cccc2c1CN(C1CCC(=O)NC1=O)C2=O (configuration not stated) [Lenalidomide (CC-5013)]: 101
4) O=CN1CC/C(=C/c2ccc3c(c2)OCO3)C1=O: 104
5) N=C1CCCN1Cc1[nH]c(=O)[nH]c(=O)c1Cl [Tipiracil hydrochloride]: 112
6) CC1(C)CC[C@]2(C(=O)O[C@@H]3O[C@H](CO)[C@@H](O)[C@H](O)[C@H]3O)CC[C@]3(C)C(=CC[C@@H]4[C@@]5(C)CC[C@H](O[C@@H]6O[C@H](C(=O)O)[C@@H](O)[C@H](O)[C@H]6O)C(C)(C)[C@@H]5CC[C@]43C)[C@@H]2C1: 114
7) CC(C)c1nc(CN(C)C(=O)N[C@@H](CCN2CCOCC2)C(=O)N[C@H](CC[C@H](Cc2ccccc2)NC(=O)OCc2cncs2)Cc2ccccc2)cs1 [Cobicistat (GS-9350)]: 104

Cited source for all entries: the supplement of paper PMC10981050
